# Assay system: 5-hydroxytryptamine receptor 6 (Homo sapiens, UniProt P50406)
# Sequence (P50406 whole entry): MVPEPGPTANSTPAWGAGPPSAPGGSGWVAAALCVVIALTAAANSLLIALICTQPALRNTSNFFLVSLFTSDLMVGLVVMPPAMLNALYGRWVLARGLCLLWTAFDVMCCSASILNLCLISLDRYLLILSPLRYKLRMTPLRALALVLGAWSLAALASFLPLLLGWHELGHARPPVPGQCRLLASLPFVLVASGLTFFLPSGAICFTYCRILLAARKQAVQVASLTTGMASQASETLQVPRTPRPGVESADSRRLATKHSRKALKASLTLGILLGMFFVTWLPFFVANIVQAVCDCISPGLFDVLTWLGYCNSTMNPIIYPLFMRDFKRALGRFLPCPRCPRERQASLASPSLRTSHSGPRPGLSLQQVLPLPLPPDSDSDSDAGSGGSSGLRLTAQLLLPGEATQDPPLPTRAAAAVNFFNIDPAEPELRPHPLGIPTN
# Assay details: Displacement of [3H]-lysergic acid diethylamine from human recombinant 5-HT6 receptor
Recorded endpoint: Ki

molecule=CCOCc1cccc(NS(=O)(=O)c2ccc(OC)c(N3CCNCC3)c2)c1 recorded_endpoint=Ki experimental_result="< 10 nM"
molecule=CCOc1ccc(S(=O)(=O)Nc2cccc(COC)c2)cc1N1CCN(C)CC1 recorded_endpoint=Ki experimental_result="< 10 nM"
molecule=COCc1cccc(NS(=O)(=O)c2ccc(OC)c(N3CCNCC3)c2)c1 recorded_endpoint=Ki experimental_result="< 10 nM"
molecule=CCOc1ccc(S(=O)(=O)Nc2ccccc2COC)cc1N1CCN(C)CC1 recorded_endpoint=Ki experimental_result="< 10 nM"
molecule=COCc1cccc(NS(=O)(=O)c2ccc(C)c(N3CCNCC3)c2)c1 recorded_endpoint=Ki experimental_result="< 10 nM"
molecule=COc1ccc(S(=O)(=O)Nc2cccc(COCC(F)(F)F)c2)cc1N1CCNCC1 recorded_endpoint=Ki experimental_result="< 10 nM"
molecule=COCc1ccccc1NS(=O)(=O)c1ccc(C)c(N2CCNCC2)c1 recorded_endpoint=Ki experimental_result="< 100 nM"
molecule=COCc1cccc(NS(=O)(=O)c2ccc(C)c(N3CCN(C)CC3)c2)c1 recorded_endpoint=Ki experimental_result="< 100 nM"
molecule=CCOc1ccc(S(=O)(=O)Nc2cccc(COC)c2)cc1N1CCNCC1 recorded_endpoint=Ki experimental_result="< 10 nM"
molecule=COCc1cccc(N(C)S(=O)(=O)c2ccc(OC)c(N3CCNCC3)c2)c1 recorded_endpoint=Ki experimental_result="< 100 nM"

* * *

# Ki listing for each entry below
# Assay system: 5-hydroxytryptamine receptor 6 (Homo sapiens)
# Assay details: Displacement of [3H]-lysergic acid diethylamine from human recombinant 5-HT6 receptor
Recorded endpoint: Ki

molecule=CCOc1ccc(S(=O)(=O)Nc2ccccc2COC)cc1N1CCNCC1 recorded_endpoint=Ki experimental_result="< 10 nM"
molecule=COCc1cccc(NS(=O)(=O)c2ccc(OC)c(N3CCN(C)CC3)c2)c1 recorded_endpoint=Ki experimental_result="< 10 nM"
molecule=COCc1ccc(NS(=O)(=O)c2ccc(OC)c(N3CCNCC3)c2)cc1 recorded_endpoint=Ki experimental_result="< 100 nM"
molecule=COCc1ccccc1NS(=O)(=O)c1ccc(C)c(N2CCN(C)CC2)c1 recorded_endpoint=Ki experimental_result="< 100 nM"
molecule=COCc1ccccc1NS(=O)(=O)c1ccc(OC)c(N2CCNCC2)c1 recorded_endpoint=Ki experimental_result="< 10 nM"
molecule="COc1ccc(S(=O)(=O)Nc2cccc(C(C)OC)c2)cc1N1CCNCC1 (stereo not drawn)" recorded_endpoint=Ki experimental_result="< 20 nM"
molecule=COCc1ccccc1NS(=O)(=O)c1ccc(OC)c(N2CCN(C)CC2)c1 recorded_endpoint=Ki experimental_result="< 10 nM"
molecule=COCc1cccc(NS(=O)(=O)c2ccc(OC)c(N3CCCNCC3)c2)c1 recorded_endpoint=Ki experimental_result="< 20 nM"
